Measured % inhibition accompanies every entry in the list below.
- assay-target: T1, human BMPR1B coated on MSD plates (construct not stated) (human, UniProt O00238 14-126, limits assumed)
- T1 construct: also called BMPR1B receptor
- T1 sequence: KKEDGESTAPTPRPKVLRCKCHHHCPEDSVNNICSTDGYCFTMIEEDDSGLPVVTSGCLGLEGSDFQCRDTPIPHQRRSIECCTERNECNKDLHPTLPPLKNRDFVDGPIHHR
- procedure-summary: MSD ELISA, BMP2 blocked
- Set-up: concentration or dose not given beside the values
Don't forget the unit after the number, please.

1. SC91.155 (antibody, V domains shown) VH: QIQLVQSGPELKKPGETVKISCKASGYTFTTYGMNWVKQAPGKGLKWMGWINSYSGVPAYADDFKGRFAFSLETFASTAYLQINNLRDEDTATYFCARSELRNWYFDVWGTGTTVTVSS VL: SFVMTQTPKFLLVSAGDRVTITCKASQNLGNDVAWYQQKPGQSPRLLIYFASNRYTGVPDRFTGSGYGTDFTFTISTVQAEDLAVYFCQQDYSSPFTFGSGTKLEIK | 49%
2. SC91.9 (murine anti-BMPR1B antibody) (antibody, V domains shown, Murine hybridoma antibody) VH: QVQLQQPGAELVKPGASVKLSCKASGYTFISYWMHWVKQRPGQGLEWIGMIHPNSGSTNYNESFKSKATLTVDKSSSTAYMQLSSLTSEDSAVYYCARDLLIATVVVTPYFAYWGQGTILTVSS VL: DIQMTQTTSSLSASLGDRVTISCRASQDISNFLNWYQQKPDGTIKFLIYYTSRLHSGVPSRFSGSGSGTDYSLTIRNLEQEDIATYFCQQGNTLPYTFGGGTKLEIK | 50%

Prompt: Quick check: % inhibition of SC91.111 (antibody, V domains shown, copies: 2 + 2) VH: QIQLVQSGPELKKPGETVKISCKASGYTLTTYGMNWVKQAPGKGLKWMGWINTYSGVPAYADDFKGRFAFSLETSASTAYLQINNFKNEDTATYFCARSELRNWYFDVWGTGTTVTVSS VL: SFVMTQTPKFLLVSAGDRVTITCKASQNMGHNVAWYQQKPGQSPKLLIYYASNRYTGVPDRFTGSGYGTDFTFTISTVQAEDLAVYFCQQDYSSPFTFGSGTKLEIK ?
Response: 36%
